- SYSTEM_TESTED: pERK1/2 (Thr202/Tyr204), NCI-1H358 (KRAS G12C) (Homo sapiens, UniProt P01116, G12C)
- Construct: pERK1/2 HTRF read-out
- Sequence (P01116 1-188 isoform P01116-2 G12C): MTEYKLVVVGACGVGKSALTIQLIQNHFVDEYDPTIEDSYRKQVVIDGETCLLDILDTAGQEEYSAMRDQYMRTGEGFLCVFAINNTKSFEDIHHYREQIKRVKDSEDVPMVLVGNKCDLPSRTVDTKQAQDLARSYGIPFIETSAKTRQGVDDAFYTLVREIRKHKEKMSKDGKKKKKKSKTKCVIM
- PROTOCOL_NOTES: Assay of intracellular pERK1/2 (Thr202/Tyr204) phosphorylation in NCI-H358 cells (KRAS G12C)
- Format: cell-based
- STATED_CONDITIONS: pERK1/2, 2 days, read-out: NCI-H358 (KRAS G12C) IC50
MEASUREMENT_TYPE: IC50 (nM)

COMPOUND | MEASUREMENT_TYPE | OBSERVED_VALUE
Cc1cc(N)cc(-c2nc3c4c(nc(OC[C@@H]5C[C@@H](F)CN5C)nc4c2F)N(C(C)c2cccnc2N)[C@@H](C)CO3)c1C(F)(F)F (single isomer, unassigned) [Compound 282] | IC50 | 0.2

(I) CC(c1cccnc1N)N1CCOc2nc(-c3cc(N)c(F)c(Cl)c3C3CC3)c(F)c3nc(OC[C@@]45CCCN4C[C@H](F)C5)nc1c23 (stereo partly drawn)
(II) C[C@H](c1cccnc1N)N1CCOc2nc(-c3c(C(F)(F)F)ccc4[nH]ncc34)c(F)c3nc(OC[C@@H]4CCN4CC(F)F)nc1c23 (single isomer, unassigned)
Req: Pick one: I or II . Which has the bigger IC50 number? Answer with the label corresponding to your selection.
Resp: II
(II: 595 nM, I: 0.2 nM)

====

- SYSTEM_TESTED: pERK1/2 (Thr202/Tyr204), NCI-1H441 (KRAS G12V) (Homo sapiens, UniProt P01116, G12V)
- Construct: pERK1/2 HTRF read-out
- Sequence (P01116 1-188 isoform P01116-2 G12V): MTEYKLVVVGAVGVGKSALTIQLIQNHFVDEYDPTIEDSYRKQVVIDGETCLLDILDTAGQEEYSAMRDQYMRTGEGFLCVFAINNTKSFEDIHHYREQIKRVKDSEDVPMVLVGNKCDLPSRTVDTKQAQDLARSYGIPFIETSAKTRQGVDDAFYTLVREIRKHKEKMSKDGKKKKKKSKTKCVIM
- PROTOCOL_NOTES: Assay of intracellular pERK1/2 (Thr202/Tyr204) phosphorylation in NCI-H441 cells (KRAS G12V)
- Type: cell-based
- STATED_CONDITIONS: pERK1/2, 2 days, read-out: NCI-H441 (KRAS G12V) IC50
MEASUREMENT_TYPE: IC50 (nM)

Study these solved cases before continuing.
COMPOUND | SYSTEM_TESTED | MEASUREMENT_TYPE | VALUE_UNITS | OBSERVED_VALUE
CC(c1cccnc1N)N1c2nc(OC[C@@]34CCCN3C[C@H](F)C4)nc3c(F)c(-c4c(Cl)ccc5[nH]ncc45)nc(c23)OC[C@@H]1C (stereo partly shown) | pERK1/2 (Thr202/Tyr204), NCI-1H441 (KRAS G12V) (Homo sapiens, UniProt P01116, G12V) | IC50 | nM | 7
C[C@@H](c1cccnc1N)N1CCOc2nc(-c3c(C(F)(F)F)ccc4[nH]ncc34)c(F)c3nc(OC[C@@]45CCCN4C[C@H](F)C5)nc1c23 (single isomer, unassigned) | pERK1/2 (Thr202/Tyr204), NCI-1H441 (KRAS G12V) (Homo sapiens, UniProt P01116, G12V) | IC50 | nM | 11
[2H]C([2H])([2H])N1CCC[C@H]1COc1nc2c3c(nc(-c4cc(N)cc(C)c4C(F)(F)F)c(F)c3n1)OCCN2C(C)c1cccnc1N (single isomer, unassigned) [Compound 95] | pERK1/2 (Thr202/Tyr204), NCI-1H441 (KRAS G12V) (Homo sapiens, UniProt P01116, G12V) | IC50 | nM | 2

(P) Cc1c(C(F)(F)F)c(-c2nc3c4c(nc(OC[C@@]56CCCN5C[C@H](F)C6)nc4c2F)N(C(C)c2cccnc2N)[C@@H](C)CO3)c2c(C)n[nH]c2c1F (stereo partly shown) [Compound 380]
(Q) CC(c1cccnc1N)N1CCOc2nc(-c3cc(O)cc4ccc(F)c(F)c34)c(F)c3nc(OC[C@@H]4CC(F)(F)CN4C)nc1c23 (stereo partly shown) [Compound 46]
(R) Cc1c(F)c(N)cc(-c2nc3c4c(nc(OC[C@@]56CCCN5C[C@@]5(CC5(F)F)C6)nc4c2F)N(C(C)c2cccnc2N)CCO3)c1C(F)(F)F (single isomer, unassigned; diastereomer 1)
(S) [2H]C1([2H])CC[C@@]2(C([2H])([2H])Oc3nc4c5c(nc(-c6cc(N)cc(C)c6C(F)(F)F)c(F)c5n3)OCCN4C(C)c3cccnc3N)C[C@@H](F)CN12 (single isomer, unassigned) [Compound 116]
(T) Cc1c(F)c(N)cc(-c2nc3c4c(nc(OC[C@@]56CCCN5C[C@H](F)C6)nc4c2F)N(C(C)c2cccnc2N)[C@@H](C)CO3)c1C(F)(F)F (single isomer, unassigned) [Compound 250]
Req: Sort these compounds on IC50 so the largest reading comes first. Answer by listing the labels in the order asked for.
Resp: S, Q, P, R, T
(S: 9 nM, Q: 5 nM, P: 2 nM, R: 0.6 nM, T: 0.3 nM)
